Listing: pIC50 of selected compounds
Tested on: PC-3
protocol_summary: MTT cytotoxicity assay, PC-3
Type: cell-based, human
experimental_conditions: PC-3, 72 h drug exposure, mean ± SD
Please express pIC50 as -log10 of the molar concentration.

Use these answered entries as a reference point.
• N.N.[Cl][Pt][Cl] [CP, cisplatin, reference compound] = 4.66
• Oc1ccc(CCN=Cc2ccccc2[O][Pd][O]c2ccccc2C=NCCc2ccc(O)cc2)cc1 [Complex 2b] = 4.54
• C(=NCCc1c[nH]c2ccccc12)c1ccccc1[O][Pd][O]c1ccccc1C=NCCc1c[nH]c2ccccc12 [Complex 2c] = 5.07

Now turn to the next compound.
## Input # pIC50 lookup, item Oc1ccc(CN=Cc2ccccc2[O][Pd][O]c2ccccc2C=NCc2ccc(O)cc2)cc1 [Complex 2a]
## Output 4.10
